# TARGET_OR_SYSTEM: hERG potassium channel (Homo sapiens, UniProt Q12809)
# Sequence (Q12809 whole entry): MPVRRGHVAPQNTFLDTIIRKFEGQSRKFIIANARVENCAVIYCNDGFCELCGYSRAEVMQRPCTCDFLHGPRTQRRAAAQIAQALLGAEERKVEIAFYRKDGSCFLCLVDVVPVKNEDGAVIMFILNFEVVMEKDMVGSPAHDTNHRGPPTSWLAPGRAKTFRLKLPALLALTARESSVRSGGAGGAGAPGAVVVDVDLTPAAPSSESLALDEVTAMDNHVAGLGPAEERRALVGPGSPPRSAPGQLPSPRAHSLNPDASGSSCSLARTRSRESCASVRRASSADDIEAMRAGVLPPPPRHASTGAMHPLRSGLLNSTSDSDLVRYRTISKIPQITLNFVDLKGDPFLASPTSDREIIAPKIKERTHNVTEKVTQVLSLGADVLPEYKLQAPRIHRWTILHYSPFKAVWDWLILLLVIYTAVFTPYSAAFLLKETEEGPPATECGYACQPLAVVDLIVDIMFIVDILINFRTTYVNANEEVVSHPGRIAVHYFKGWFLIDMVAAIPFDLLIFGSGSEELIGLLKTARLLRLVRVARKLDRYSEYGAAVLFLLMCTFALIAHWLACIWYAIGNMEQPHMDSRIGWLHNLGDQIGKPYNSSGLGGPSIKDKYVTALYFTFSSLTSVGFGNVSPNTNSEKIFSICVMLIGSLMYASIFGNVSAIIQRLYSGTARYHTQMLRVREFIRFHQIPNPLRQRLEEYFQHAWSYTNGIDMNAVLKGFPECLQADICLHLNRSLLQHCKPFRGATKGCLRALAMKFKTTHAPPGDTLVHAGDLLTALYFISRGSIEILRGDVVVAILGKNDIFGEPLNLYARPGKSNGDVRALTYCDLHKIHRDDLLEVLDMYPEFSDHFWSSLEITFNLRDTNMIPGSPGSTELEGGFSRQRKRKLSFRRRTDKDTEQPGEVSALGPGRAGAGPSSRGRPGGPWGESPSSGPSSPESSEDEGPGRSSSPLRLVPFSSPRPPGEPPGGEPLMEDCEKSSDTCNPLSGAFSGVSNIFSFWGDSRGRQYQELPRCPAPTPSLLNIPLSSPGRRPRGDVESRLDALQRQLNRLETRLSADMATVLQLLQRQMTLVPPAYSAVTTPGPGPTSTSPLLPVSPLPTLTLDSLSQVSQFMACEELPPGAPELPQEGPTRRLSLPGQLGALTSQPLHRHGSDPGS
# MEASUREMENT_NOTES: in vitro
Numbered stars: 1 amine (or outer) side, 2 acyl side, 3 side chain; on linkers, the order of the positions; unused ones are H or OH. Bridge positions count the residues as written; N and C are the ends. Peptide text beside a SMILES is read from it. * marks the point of attachment. X1 = O=C(O)CN1CCN(CC(=O)O)CCN(CC(=O)N2CCN(Cc3cc(C[*:1])cc(C[*:2])c3)CC2)CCN(CC(=O)O)CC1; Hexanoyl = CCCCCC(=O)*

MOLECULE	UNIT_NAME	inhibition at 10 µM
CCCCCC(=O)N[C@H]1CSCc2cc(cc(CN3CCN(C(=O)CN4CCN(CC(=O)O)CCN(CC(=O)O)CCN(CC(=O)O)CC4)CC3)c2)CSC[C@@H](C(=O)N[C@@H](CC(=O)O)C(N)=O)NC(=O)[C@H](Cc2ccccc2)NC(=O)[C@H](CCC(N)=O)NC(=O)[C@H]([C@@H](C)O)NC(=O)[C@@H]2CCCN2C(=O)[C@@H]2CCCN2C1=O [3BP-3407] (Hexanoyl-CPPTQFCD-NH2; linker 1-7 via X1)	%	2
CCCCCC(=O)N[C@H]1CSCc2cc(CSCCNC(=O)CN3CCN(CC(=O)O)CCN(CC(=O)O)CCN(CC(=O)O)CC3)cc(c2)CSC[C@@H](C(=O)O)NC(=O)[C@H](Cc2ccccc2)NC(=O)[C@H](CCC(N)=O)NC(=O)[C@H]([C@@H](C)O)NC(=O)[C@@H]2CCCN2C(=O)[C@@H]2CCCN2C1=O	%	6

====

# TARGET_OR_SYSTEM: Human recombinant FAP (Homo sapiens)
# Sequence (Q12884 whole entry): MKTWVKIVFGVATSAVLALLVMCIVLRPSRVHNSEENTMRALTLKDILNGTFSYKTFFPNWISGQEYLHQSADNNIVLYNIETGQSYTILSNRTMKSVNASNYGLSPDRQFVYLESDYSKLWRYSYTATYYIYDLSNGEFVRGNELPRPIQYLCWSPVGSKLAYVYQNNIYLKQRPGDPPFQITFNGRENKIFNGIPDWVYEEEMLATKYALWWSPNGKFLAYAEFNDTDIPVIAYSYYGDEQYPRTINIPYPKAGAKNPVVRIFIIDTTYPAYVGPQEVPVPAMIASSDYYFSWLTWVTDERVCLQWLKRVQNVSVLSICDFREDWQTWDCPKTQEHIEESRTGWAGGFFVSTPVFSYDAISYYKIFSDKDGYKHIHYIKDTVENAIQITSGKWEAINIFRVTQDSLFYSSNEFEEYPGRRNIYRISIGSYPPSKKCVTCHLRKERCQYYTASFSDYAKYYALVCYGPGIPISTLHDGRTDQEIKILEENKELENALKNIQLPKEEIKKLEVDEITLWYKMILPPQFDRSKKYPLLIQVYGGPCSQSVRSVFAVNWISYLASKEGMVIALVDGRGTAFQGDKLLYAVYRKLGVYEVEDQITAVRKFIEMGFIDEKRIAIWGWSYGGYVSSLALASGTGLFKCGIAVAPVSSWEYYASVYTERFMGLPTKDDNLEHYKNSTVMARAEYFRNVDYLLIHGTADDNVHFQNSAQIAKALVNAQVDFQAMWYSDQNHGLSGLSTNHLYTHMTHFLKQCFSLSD
# MEASUREMENT_NOTES: Surface plasmon resonance (Biacore) assay
Numbered stars: 1 amine (or outer) side, 2 acyl side, 3 side chain; on linkers, the order of the positions; unused ones are H or OH. Bridge positions count the residues as written; N and C are the ends. Square brackets hold non-standard residues; d marks the D form. Peptide text beside a SMILES is read from it. * marks the point of attachment. X4 = O=C1CN2CCN3CCN(CC(=O)N4CCN(Cc5cc(C[*:1])cc(C[*:2])c5)CC4)CCN(CC2)CC(=O)[O][In]([O]1)[O]C(=O)C3; X11 = O=C(CN1CCN2CCN3CCN(CC1)CC(=O)[O][In]([O]C(=O)C2)[O]C(=O)C3)NCCSCc1cc(CSCCN[*:2])cc(C[*:1])c1; X2 = O=C(O)CN1CCN(CC(=O)O)CCN(CC(=O)NCCCOCCOCCOCCCN*)CCN(CC(=O)O)CC1; X12 = NCCNCC(CNCCN)C(=O)NCCCOCCOCCOCCCN*; mXylylene = c1cc(C[*:1])cc(C[*:2])c1; PEG6 = NCCOCCOCCOCCOCCOCCOCCC(=O)O; Suc = O=C(CCC(=O)[*:2])[*:1]; X18 = NCCNCC(CNCCN)C(=O)*; Nle = CCCC[C@H](N)C(=O)O; Hexanoyl = CCCCCC(=O)*
We begin with a simple list: items and their reported Kd.
MEASURED_PROPERTY: Kd

MOLECULE	MEASURED_PROPERTY	VALUE_REPORTED
CCCC[C@H](NC(=O)CCC(=O)NCCCOCCOCCOCCCNC(=O)CN1CCN(CC(=O)O)CCN(CC(=O)O)CCN(CC(=O)O)CC1)C(=O)N[C@H]1CSCc2cccc(c2)CSC[C@@H](C(=O)N[C@@H](CC(=O)O)C(N)=O)NC(=O)[C@H](Cc2ccccc2)NC(=O)[C@H](CCC(N)=O)NC(=O)[C@H]([C@@H](C)O)NC(=O)[C@@H]2CCCN2C(=O)[C@@H]2CCCN2C1=O [3BP-3401] ({X2-Suc}-[Nle]CPPTQFCD-NH2; linker 2-8 via mXylylene)	Kd	< 10 nM
CCCCCC(=O)N[C@H]1CSCc2cc(CSCCNC(=O)CCCN(C)C(=O)c3ccccc3-c3c4ccc(=N)c(S(=O)(=O)O)c-4oc4c(S(=O)(=O)O)c(N)ccc34)cc(c2)CSC[C@@H](C(=O)O)NC(=O)[C@H](Cc2ccccc2)NC(=O)[C@H](CCC(N)=O)NC(=O)[C@H]([C@@H](C)O)NC(=O)[C@@H]2CCCN2C(=O)[C@@H]2CCCN2C1=O	Kd	10 to 79.4 nM
CCCC[C@H](NC(=O)CCOCCOCCOCCOCCOCCOCCNC(=O)C(CNCCN)CNCCN)C(=O)N[C@H]1CSCc2cccc(c2)CSC[C@@H](C(=O)O)NC(=O)[C@H](Cc2ccccc2)NC(=O)[C@H](CCC(=O)O)NC(=O)[C@H]([C@@H](C)O)NC(=O)[C@@H]2CCCN2C(=O)[C@@H]2CCCN2C1=O [3BP-4221] ({X18-PEG6}-[Nle]CPPTEFC-OH; linker 2-8 via mXylylene)	Kd	< 10 nM
CCCC[C@H](NC(=O)CCC(=O)NCCCOCCOCCOCCCNC(=O)C(CNCCN)CNCCN)C(=O)N[C@H]1CSCc2cccc(c2)CSC[C@@H](C(=O)O)NC(=O)[C@H](Cc2ccccc2)NC(=O)[C@H](CCC(=O)O)NC(=O)[C@H]([C@@H](C)O)NC(=O)[C@@H]2CCCN2C(=O)[C@@H]2CCCN2C1=O [3BP-4161] ({X12-Suc}-[Nle]CPPTEFC-OH; linker 2-8 via mXylylene)	Kd	< 10 nM
CCCCCC(=O)N[C@H]1CSCc2cc(CSCCNC(=O)CN3CCN4CCN5CCN(CC3)CC(=O)[O][In]([O]C(=O)C4)[O]C(=O)C5)cc(c2)CSCCNC(=O)[C@H](Cc2ccccc2)NC(=O)[C@H](CCC(N)=O)NC(=O)[C@H]([C@@H](C)O)NC(=O)[C@@H]2CCCN2C(=O)[C@@H]2CCCN2C1=O [3BP-3713] (Hexanoyl-CPPTQF; linker 1-C via X11)	Kd	< 10 nM
CCCCCC(=O)N[C@H]1CSCc2cc(cc(CN3CCN(C(=O)CN4CCN5CCN6CCN(CC4)CC(=O)[O][In]([O]C(=O)C6)[O]C(=O)C5)CC3)c2)CSC[C@@H](C(=O)N[C@@H](CC(=O)O)C(N)=O)NC(=O)[C@H](Cc2ccccc2)NC(=O)[C@H](CCC(N)=O)NC(=O)[C@H]([C@@H](C)O)NC(=O)[C@@H]2CCCN2C(=O)[C@@H]2CCCN2C1=O [3BP-3590] (Hexanoyl-CPPTQFCD-NH2; linker 1-7 via X4)	Kd	< 10 nM

====

# TARGET_OR_SYSTEM: Human recombinant FAP (Homo sapiens)
# MEASUREMENT_NOTES: FRET-based FAP protease activity assay
# Assay type: biochemical
# Parameters: purchased R&D systems 3715-SE
# MEASUREMENT_SETUP: pIC50 Category (Activity), FRET substrate, 37° C.
Measured IC50 values are reported for all entries that follow.
MEASURED_PROPERTY: IC50

COMPOUND	VALUE_REPORTED
CCCCCC(=O)N[C@H]1CSCc2cc(CSCCNC(=O)CC[C@@H]3C(=O)[O][Ga]([O]C(=O)CN(C)CC)[O]C(=O)CN(C)CCN3CC)cc(c2)CSC[C@@H](C(=O)O)NC(=O)[C@H](Cc2ccccc2)NC(=O)[C@H](CCC(N)=O)NC(=O)[C@H]([C@@H](C)O)NC(=O)[C@@H]2CCCN2C(=O)[C@@H]2CCCN2C1=O [3BP-4184]	< 10 nM
CCCC[C@H](NC(=O)CCC(=O)NCCCOCCOCCOCCCNC(=O)[C@H](CCC(=O)NC[C@H](O)[C@@H](O)[C@H](O)[C@H](O)CO)NC(=O)[C@H](CCC(=O)NC[C@H](O)[C@@H](O)[C@H](O)[C@H](O)CO)NC(=O)C(CNCCN)CNCCN)C(=O)N[C@H]1CSCc2cccc(c2)CSC[C@@H](C(=O)O)NC(=O)[C@H](Cc2ccccc2)NC(=O)[C@H](CCC(=O)O)NC(=O)[C@H]([C@@H](C)O)NC(=O)[C@@H]2CCCN2C(=O)[C@@H]2CCCN2C1=O [3BP-4266]	10 to 79.4 nM
CCCCCC(=O)N[C@H]1CSCc2cc(CSCCNC(=O)CCC(=O)NCCCOCCOCCOCCCNC(=O)C(CNCCN)CNCCN)cc(c2)CSC[C@@H](C(=O)O)NC(=O)[C@H](Cc2ccccc2)NC(=O)[C@H](CCC(N)=O)NC(=O)[C@H]([C@@H](C)O)NC(=O)[C@@H]2CCCN2C(=O)[C@@H]2CCCN2C1=O [3BP-4299]	< 10 nM
CCCCCC(=O)N[C@H]1CSCc2cccc(c2)CSC[C@@H](C(=O)O)NC(=O)[C@H](Cc2ccccc2)NC(=O)[C@H](CCC(N)=O)NC(=O)[C@H]([C@@H](C)O)NC(=O)[C@@H]2CCCN2C(=O)[C@@H]2CCCN2C1=O [3BP-4186]	10 to 79.4 nM
CCCCCC(=O)N[C@H]1CSCc2cc(CSCCNC(=O)c3ccc(NN)nc3)cc(c2)CSC[C@@H](C(=O)O)NC(=O)[C@H](Cc2ccccc2)NC(=O)[C@H](CCC(N)=O)NC(=O)[C@H]([C@@H](C)O)NC(=O)[C@@H]2CCCN2C(=O)[C@@H]2CCCN2C1=O [3BP-4342]	< 10 nM
CCCC(NC(=O)CCC(=O)NCCCOCCOCCOCCCNC(=O)CN1CCN(CC(=O)O)CCN(CC(=O)O)CCN(CC(=O)O)CC1)C(=O)N[C@H]1CSCc2cccc(c2)CSC[C@@H](C(=O)N[C@@H](CC(=O)O)C(=O)NCCCOCCOCCOCCCNC(=O)CCC(=O)N[C@@H](CCCCNC(=O)CN2CCN(CC(=O)O)CCN(CC(=O)O)CCN(CC(=O)O)CC2)C(N)=O)NC(=O)[C@H](Cc2ccccc2)NC(=O)[C@H](CCC(N)=O)NC(=O)[C@H]([C@@H](C)O)NC(=O)[C@@H]2CCCN2C(=O)[C@@H]2CCCN2C1=O (stereo partly drawn) [3BP-4393]	< 10 nM
